system: T. brucei rhodesiense (STIB 900); assay: In vitro antitrypanosomal activity against bloodstream forms; assay type: cell-based; details: Trypanosoma brucei; bloodstream forms; mean ± margin of deviation of two independent determinations; read-out: T. brucei rhodesiense (STIB 900) IC50
pIC50: −log10 of the molar value.
metric: pIC50

Solved cases (3 shown):
CC(C)=CCC/C(C)=C/Cc1ccc(O)c(C(=O)c2c(O)cc(C(=O)O)cc2C=O)c1O [NP-013296 (2)] = 4.39
CC(C)=CCC/C(C)=C/Cc1ccc(O)c(C(=O)c2c(O)cc(C(=O)O)cc2C(=O)O)c1O [NP-011694 (1)] = 4.40
CCCC(=O)c1c(O)c(C)c(O)c(CC2=C(O)C(C)(C)C(O)=C(C(C)=O)C2=O)c1O [NP-013330 (3), flavaspidic acid AB] = 4.75

[A] Oc1cc(O)cc(CCC/C=C\CCCCCCCCCc2cc(O)cc(O)c2)c1 [NP-014428 (5)]
[B] CC(C)=CCC/C(C)=C/Cc1ccc(O)c(C(=O)c2c(O)cc(C=O)cc2C(=O)O)c1O [NP-013378 (4)]
// task: argmin of pIC50 over [ A , B ] Return value: the label identifying the chosen record.
A
(A: 4.53, B: 5.17)
